assay: viability gain of MRP-1-high H69AR cells under doxorubicin, pilot screen, MRP-1 activator project, CellTiter-Glo, duplicate (AID 807); conditions: H69AR viability with doxorubicin, CellTiter-Glo luminescence; at 10 µM; active compounds read high;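 also: compound pretreatment 18-22 h then 72 h combined with doxorubicin; 0% = doxorubicin alone and 100% = vehicle without doxorubicin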
viability increase values by entry
// units = %; emit number, no label

INPUT: For CC(C)(C)c1ccc(OCC(O)CS(=O)(=O)c2ccccn2)cc1 (stereo unspecified) , write its viability increase.
OUTPUT: -0.66

INPUT: Give the value of viability increase reported for the following: Cn1nc(-c2ccc(Cl)cc2)c2cc(C(=O)NCC3CCCO3)sc21 (stereo unspecified)
OUTPUT: -5.84

INPUT: Read off the recorded viability increase for Cc1cc(C(=O)CN2CC(C)OC(C)C2)c(C)n1-c1ccccc1 (stereo unspecified)
OUTPUT: -1.04

INPUT: Give the reported viability increase for this molecule. CCCCOC(=O)CSc1nnc(N)s1
OUTPUT: -0.86

INPUT: Fill in viability increase for record O=C(OCCN(C1=NS(=O)(=O)c2ccccc21)c1ccc(Cl)cc1)c1ccco1
OUTPUT: -5.7

INPUT: Please look at this molecule and report its viability increase: CCOc1ccc(N(CC(=O)NCc2ccc(F)cc2)S(=O)(=O)c2c(C)noc2C)cc1
OUTPUT: -1.36

INPUT: Output viability increase of CCOC(=O)C1CCN(CC(O)COc2ccc(C(C)=O)cc2)CC1 (stereo unspecified)
OUTPUT: -0.88

INPUT: Name the recorded viability increase of the item COCCNC(=O)CS(=O)Cc1nc(-c2ccc(Cl)cc2)oc1C (stereo unspecified) in your answer.
OUTPUT: -0.72

INPUT: For the molecule O=S1(=O)N=C(Nc2ccc(O)c(CN3CCCCC3)c2)c2ccccc21 , report viability increase.
OUTPUT: -3.07

INPUT: Name the recorded viability increase of the molecule listed here: CC(=O)NC1(c2ccccc2)CCN(Cc2nnnn2C(C)(C)C)CC1
OUTPUT: -0.8

INPUT: Return reported viability increase. Input molecule: COc1ccc2oc(-c3ccccc3)c(C(=O)N3CCOCC3)c2c1
OUTPUT: -3.95

Cited source for all entries: PubChem BioAssay
